- ASSAY_NAME: Microsomal metabolic stability assay
- Assay type: in vitro ADME
- CONDITION_LABEL: pH 7.4; human liver microsomes, 0.5 mg/mL protein, 1 μM compound; read-out: Human LM Clint
# note: boundary value 50 µL/min/mg maps to F; microsomal CLint at 1 μM below it maps to T

Observe how each entry below is paired with its result.
Input line: Would you kindly verify if microsomal CLint at 1 μM of [2H]C([2H])([2H])NC(=O)c1cnc(Nc2cccc(F)n2)cc1Nc1cn(C)c2c(Cl)cn(CC)c(=O)c12 is strictly less than 50 µL/min/mg?
Output line: F

Input line: Would you kindly verify if microsomal CLint at 1 μM of [2H]C([2H])([2H])NC(=O)c1cnc(Nc2cccc(C#N)n2)cc1Nc1cn(C)c2c(Cl)cn(CC)c(=O)c12 is strictly less than 50 µL/min/mg?
Output line: F

---
Input line: Would you kindly verify if microsomal CLint at 1 μM of [2H]C([2H])([2H])NC(=O)c1cnc(NC(=O)C2CC2)cc1Nc1cnn2ccn(CC(F)(F)F)c(=O)c12 is strictly less than 50 µL/min/mg?
Output line: F

Input line: Would you kindly verify if microsomal CLint at 1 μM of [2H]C([2H])([2H])NC(=O)c1cnc2nc1Nc1cc(cc(-c3ncn(C)n3)c1OC)COCc1cc(ccc1F)N2 is strictly less than 50 µL/min/mg?
Output line: T

Input line: Would you kindly verify if microsomal CLint at 1 μM of [2H]C([2H])([2H])NC(=O)c1cnc(Nc2ccc(F)cn2)cc1Nc1ccc2cnn(C([2H])([2H])[2H])c2c1OC is strictly less than 50 µL/min/mg?
Output line: F

Input line: Would you kindly verify if microsomal CLint at 1 μM of CCn1ccc2scc(Nc3cc(NC(=O)C4CC4)ncc3C(=O)NC)c2c1=O is strictly less than 50 µL/min/mg?
Output line: F

Input line: Would you kindly verify if microsomal CLint at 1 μM of [2H]C([2H])([2H])NC(=O)c1nnc2cc1Nc1cc(cc(-n3cnc(C)n3)c1OC)COCc1nc(ccc1F)N2 is strictly less than 50 µL/min/mg?
Output line: T

Input line: Would you kindly verify if microsomal CLint at 1 μM of [2H]C([2H])([2H])NC(=O)c1cnc2nc1Nc1cc(cc(-c3ncn(C)n3)c1OC)COCc1cc(cc(F)c1F)N2 is strictly less than 50 µL/min/mg?
Output line: T

Input line: Would you kindly verify if microsomal CLint at 1 μM of [2H]C([2H])([2H])NC(=O)c1cnc(Nc2ccn(C)n2)cc1Nc1ncc2cnn(CC)c2c1OC is strictly less than 50 µL/min/mg?
Output line: T
